- Test system: Saccharomyces cerevisiae
- protocol-text: protein stability index of tFT-peptide fusion (C-terminal peptide) (PSI (0-1 scale)); higher = more stable (slower turnover)
- condition-parameters: genetic background: cdc53-1; temperature: 37 C
Binned protein stability index; ranges: bin 1 = under 0.5, bin 2 = from 0.5 up to 0.7, bin 3 = 0.7 and over

// below: answered sequences
QCLSYFFPVPVA | bin 1
VRSELHINSFIH | bin 3
GLRLRCPLLLSL | bin 1
MALAVRVVPCGA | bin 1
LSFLCFSTVLHC | bin 2

[ask] Looking at `YRLTIVWFFLAL` , which class would you pick?
[reply] bin 2

[ask] Looking at `SILFSYFCFFLL` , which class would you pick?
[reply] bin 2

[ask] Looking at `FICLLFSCVYLG` , which class would you pick?
[reply] bin 2

[ask] Looking at `SPPHSPSALPPP` , which class would you pick?
[reply] bin 3

[ask] Looking at `NFTDMGRSLYIN` , which class would you pick?
[reply] bin 3

[ask] Looking at `ISPCLVRLWYRI` , which class would you pick?
[reply] bin 2

[ask] Looking at `VCFFLFWCLSFS` , which class would you pick?
[reply] bin 1

[ask] Looking at `FLRWRVWVVVGW` , which class would you pick?
[reply] bin 1

[ask] Looking at `CFWLLSSLLLFL` , which class would you pick?
[reply] bin 1

[ask] Looking at `AFRLRHEIISLM` , which class would you pick?
[reply] bin 3

[ask] Looking at `FSSRVFLIVGIY` , which class would you pick?
[reply] bin 2

[ask] Looking at `SRFFSCCVFPSF` , which class would you pick?
[reply] bin 3

[ask] Looking at `GTRREFVILYLF` , which class would you pick?
[reply] bin 2

[ask] Looking at `LWAVGVATDWGG` , which class would you pick?
[reply] bin 3

[ask] Looking at `IKWRCLFCVCVL` , which class would you pick?
[reply] bin 1

[ask] Looking at `GLCSGTGARWLV` , which class would you pick?
[reply] bin 3

[ask] Looking at `KERHRNKRKQIA` , which class would you pick?
[reply] bin 3

[ask] Looking at `MCVCLLVRVVPS` , which class would you pick?
[reply] bin 1

[ask] Looking at `FFGFFWLFLLFC` , which class would you pick?
[reply] bin 1

[ask] Looking at `FFVFMAKLRTCN` , which class would you pick?
[reply] bin 2

[ask] Looking at `MALAVRVVSCGA` , which class would you pick?
[reply] bin 1

[ask] Looking at `QKGLFYCVILYC` , which class would you pick?
[reply] bin 1

---

Measured protein stability index of individual entries
- System: Saccharomyces cerevisiae
- protocol-text: protein stability index of tFT-peptide fusion (C-terminal peptide) (PSI (0-1 scale)); higher = more stable (slower turnover)
- condition-parameters: genetic background: cdc34-1; temperature: 37 C
Please give the numeric answer without any surrounding text.

Use the examples below as a reference point.
LFIFYCFFFLVR | 0.27
RWGLCFVHVTMF | 0.0369

Then there is this sequence:
[ask] Write down the reported protein stability index of `EERKIFLKVVKV` , test system: Saccharomyces cerevisiae.
[reply] 0.545

---

- System: Saccharomyces cerevisiae
- protocol-text: protein stability index of tFT-peptide fusion (C-terminal peptide) (PSI (0-1 scale)); higher = more stable (slower turnover)
- condition-parameters: genetic background: das1 deletion; temperature: 30 C
Measured protein stability index of individual entries
Please give the numeric answer without any surrounding text.

Use the examples below as a reference point.
AVIGVYGEGQFI [ATG33 C-terminal 12 aa] | 0.699
TDISGEKNSSKI [RLM1 C-terminal 12 aa] | 0.704
GVIIELGSWSAW [YDR415C C-terminal 12 aa] | 0.706

Then there is this sequence:
[ask] Write down the reported protein stability index of FVEGGDGKYVLN [YPL113C C-terminal 12 aa] , test system: Saccharomyces cerevisiae.
[reply] 0.688

Recorded values, source the supplement of paper PMC10724198.
